system: SNB-78; test: NCI tumour cell line growth inhibition, 48 h
Calls of active or inactive are those of the source. No stated cut-off is given here; in the data, active = GI50 up to about 1.1 µM and inactive = higher.
Use one of these outcomes when replying: active, inactive

Observe how each entry below is paired with its result.
O=C(/C=C/c1ccccc1Cl)c1ccc(Cl)cc1Cl :: inactive
O=C1c2ccccc2C2(O)NC(=S)N(c3ccccc3)C12O (configuration not stated) :: inactive
O=NN(CCF)C(=O)NC1CC2CCC1C2 (configuration not stated) :: inactive
N=c1nc2n(cc1F)[C@@H]1O[C@H](CO)[C@@H](O)[C@@H]1O2 :: inactive
Cc1nc2c(n1-c1ccccc1)C(=O)c1ccccc1C2=O :: inactive
O=C1Sc2ccccc2C(=O)N2CCSC12 (configuration not stated) :: inactive
C#CCNC(=O)ON1C(=O)CCC1=O :: inactive
Cc1ccc(C(=O)OCC(C)C)cc1/N=N/N(C)C :: inactive

Call for entry Clc1ccc(CCn2cncn2)cc1 :
inactive

Call for entry COc1ccc(C2[C@H]3C(=O)N(c4ccc(Cc5ccc(N6C(=O)[C@@H]7ON(c8ccccc8)C(c8ccc(OC)cc8)[C@@H]7C6=O)cc5)cc4)C(=O)[C@H]3ON2c2ccccc2)cc1 (some centres not stated) :
inactive

Call for entry CCOC(=O)C(Cc1ccc([N+](=O)[O-])cc1)NC(=O)CC1c2ccccc2-c2ccccc21 (configuration not stated) :
inactive

---

system: HOP-92; experiment: NCI tumour cell line growth inhibition, 48 h
Active and inactive are the calls of the source. Cut-off read from the data, not from the text of the source: active = GI50 up to about 1.1 µM and inactive = higher.
recorded metric: GI50

COC(=O)C(C/C=C(\C)c1ccccc1)C(C)=O (stereo unspecified) :: 17.1 µM (inactive)
CCC(C)NC1=C(NC(C)=O)C(=O)c2ccccc2C1=O (stereo unspecified) :: > 75 µM (inactive)
Cc1ccc(Nc2ncnc3sc(SCc4ccccc4)nc23)cc1 :: 31.3 µM (inactive)
[N-]=[N+]=N[C@H]1C[C@@H](CO)O[C@H]1n1cnc2c(N)ncnc21 :: > 100 µM (inactive)
COC(=O)c1ccccc1CC1Cc2cccc(C)c2C1=O (stereo unspecified) :: 23.8 µM (inactive)

Note: attention shifts to another entry.
Value of measured GI50 for the entry CC12Oc3ccc4ccccc4c3C1c1c(ccc3ccccc13)O2 (stereo unspecified) : 17.1 µM (inactive)

---

tested on: NCI/ADR-RES; experiment: NCI tumour cell line growth inhibition, 48 h
Active and inactive are the calls of the source. Cut-off read from the data, not from the text of the source: active = GI50 up to about 1.1 µM and inactive = higher.
recorded metric: GI50

CN(C)C(=O)OC(Cn1cncn1)(Cn1cncn1)c1ccc(Cl)cc1Cl :: > 100 µM (inactive)
COc1ccc2c(c1)CCc1c-2[nH]c2ccc(OC)cc12 :: > 100 µM (inactive)
O=Nn1c2ccccc2c2ccccc21 :: 52.8 µM (inactive)
NC(=S)N/N=c1\cc(C(=O)Nc2ccc([N+](=O)[O-])cc2[N+](=O)[O-])oc2ccccc12 :: > 100 µM (inactive)
O=C(NCCc1ccccc1)[C@H]1CCCC[C@@H]1CCO :: > 100 µM (inactive)
COc1cc(CC(C)N)ccc1O (stereo not given) :: > 100 µM (inactive)

Value of measured GI50 for the entry CCOP(=O)(OCC)C(C)(CC)N/C(=N\C1=NC(C(F)(F)F)(C(F)(F)F)N=C(C(F)(F)F)O1)NC(NC(C)=O)(C(F)(F)F)C(F)(F)F (stereo not given) : 17.9 µM (inactive)

Value of measured GI50 for the entry CCOC(=O)c1cc([N+](=O)[O-])c(Sc2ncnc3nc[nH]c23)c([N+](=O)[O-])c1 : 2.82 µM (inactive)

Value of measured GI50 for the entry O=C(/C=C/c1ccccc1O)/C=C/c1ccccc1O : 2.14 µM (inactive)

Value of measured GI50 for the entry CC1=C(C)CC2(C=C(C(C)(C)C)C(=O)C(C(C)(C)C)=C2)SC1 : 19.1 µM (inactive)

---

system: A498; assay: NCI tumour cell line growth inhibition, 48 h
Activity calls are given as the source filed them. No stated cut-off is given here; in the data, active = GI50 up to about 1.1 µM and inactive = higher.
recorded metric: GI50

Some molecules with known GI50 results, for comparison:
O=C1C2C3CCC(C2C(=O)N1CO)C1C2C(=O)N(CO)C(=O)C2C31 (stereo not drawn) :: > 100 µM (inactive)
Cc1cc(Cl)ccc1NC(=O)CCCC(=O)C1CCCC1=O (stereo not drawn) :: > 100 µM (inactive)
C#CCNC(=O)ON1C(=O)CCC1=O :: > 100 µM (inactive)
O=c1c2cc([N+](=O)[O-])ccc2sc2ccsc12 :: > 100 µM (inactive)
CCOC(=O)C1=C(C(C)=O)CSC(c2ccccc2)=N1 :: > 100 µM (inactive)

Value of measured GI50 for the entry COc1ccc2nc3cc(Cl)ccc3c(Sc3ccc([N+](=O)[O-])cc3)c2c1 : > 10 µM (inactive)

Value of measured GI50 for the entry Cc1ccnc(NC(=S)Nc2ccccc2Cl)c1 : > 100 µM (inactive)

---

test system: A498; experiment: NCI tumour cell line growth inhibition, 48 h
Active and inactive are the calls of the source. Rule as the data show it: active = GI50 up to about 1.1 µM and inactive = higher.
# GI50 listing for each entry below

Value of measured GI50 for the entry NS(=O)(=O)c1ccc(NC(=O)C2C(=O)C(=O)N(c3ccc(S(N)(=O)=O)cc3)C2=O)cc1 (centres undefined) : > 100 µM (inactive)

Value of measured GI50 for the entry S=c1[nH]nc(Cn2c3ccc(Br)cc3c3nc4ccccc4nc32)n1C1CCCCC1 : 20.5 µM (inactive)

Value of measured GI50 for the entry CCc1nc(N)c2nc(-c3ccc(C#N)cc3)oc2n1 : > 100 µM (inactive)

Value of measured GI50 for the entry CCOP(=O)(OCC)C(C)(CC)N/C(=N\C1=NC(C(F)(F)F)(C(F)(F)F)N=C(C(F)(F)F)O1)NC(NC(C)=O)(C(F)(F)F)C(F)(F)F (centres undefined) : 38.9 µM (inactive)

Value of measured GI50 for the entry O=C1Sc2ccccc2C(=O)N2CCSC12 (centres undefined) : 31 µM (inactive)

Value of measured GI50 for the entry CC1(C)OC2C(O)CN3CCS[C@H]3C2O1 (some centres undefined) : > 100 µM (inactive)

Value of measured GI50 for the entry c1ccc(CNc2ccc3[nH]c4cnccc4c3c2)cc1 : 15 µM (inactive)

Value of measured GI50 for the entry COC(=O)C1CC2CC1C1C2SC(F)(F)C1(F)F (centres undefined) : > 100 µM (inactive)

Value of measured GI50 for the entry Oc1cc(-c2ccc(Oc3ccccc3)cc2)nc2cc3c(cc12)OCO3 : > 100 µM (inactive)

Value of measured GI50 for the entry Cc1cc(C)nc(NS(=O)(=O)c2ccc(NC(=O)c3cccc4c(Nc5ccc(S(=O)(=O)Nc6nc(C)cc(C)n6)cc5)c5ccc(Cl)cc5nc34)cc2)n1 : 45 µM (inactive)

Value of measured GI50 for the entry N=c1nc2n(cc1F)[C@@H]1O[C@H](CO)[C@@H](O)[C@@H]1O2 : 13.4 µM (inactive)

---

# GI50 listing for each entry below
tested on: CAKI-1; assay: NCI tumour cell line growth inhibition, 48 h
Calls of active or inactive are those of the source. No stated cut-off is given here; in the data, active = GI50 up to about 1.1 µM and inactive = higher.

Value of measured GI50 for the entry CCOC(=O)C(O)(NC(C)=O)C(F)(F)F (configuration not stated) : > 100 µM (inactive)

Value of measured GI50 for the entry Cc1ccc(-c2n[nH]c(=O)n2N2C(=O)c3ccccc3C2=O)cc1 : > 100 µM (inactive)

Value of measured GI50 for the entry Cc1ccc(NC(=O)C2C(=O)N(c3ccc(C)c(C)c3)C(=O)/C2=N\NC(N)=O)cc1C (configuration not stated) : > 100 µM (inactive)

Value of measured GI50 for the entry CC1=NN2C(=N)/C(=C/c3ccco3)C(=O)N=C2S1 : > 100 µM (inactive)

Value of measured GI50 for the entry O=C(CCCCCCCCCCc1ccccc1)c1c(O)cccc1O : 29.5 µM (inactive)

Value of measured GI50 for the entry NC(CCCCCP(=O)(c1ccccc1)C1C=CC=CC1)C(=O)O (configuration not stated) : > 100 µM (inactive)

Value of measured GI50 for the entry O=C1Oc2cc(O)cc(/C=C/c3ccc(O)cc3)c2[C@@]12c1c(O)cc(O)cc1OC2c1cccc(O)c1 (some centres not stated) : 83.8 µM (inactive)

---

tested on: NCI-H460; assay: NCI tumour cell line growth inhibition, 48 h
The source made the active and inactive calls. Rule as the data show it: active = GI50 up to about 1.1 µM and inactive = higher.
# GI50 listing for each entry below

Some compounds with known GI50 results, for comparison:
Cc1ccc(NC(=O)C2C(=O)N(c3ccc(C)c(C)c3)C(=O)/C2=N\NC(N)=O)cc1C (stereo unspecified) :: > 100 µM (inactive)
CC(=O)c1ccc(OCC(O)CO)cc1 (stereo unspecified) :: > 100 µM (inactive)
COc1ccc2nc3cc(Cl)ccc3c(Sc3ccc([N+](=O)[O-])cc3)c2c1 :: > 10 µM (inactive)

Value of measured GI50 for the entry Cc1cc(S(=O)(=O)Nc2nc(N)n[nH]2)c(S)cc1Cl : > 10 µM (inactive)

Value of measured GI50 for the entry C/C(=N\O)C1CC2C=C(C#N)C1N(Cc1ccccc1)C2 (stereo unspecified) : 74.5 µM (inactive)

Value of measured GI50 for the entry Cc1ccccc1CN1CC2=C(CCN(Cc3ccccc3)C2=O)N2CCN=C12 : 4.24 µM (inactive)

Value of measured GI50 for the entry Nc1nc(Cl)cc(NCC2(CO)CCCCC2)n1 : > 100 µM (inactive)

Value of measured GI50 for the entry COC(=O)C1(O)C(c2ccccc2)=NC2(C)CCCC21 (stereo unspecified) : > 100 µM (inactive)

Value of measured GI50 for the entry CCOC(=O)C(Cc1ccc([N+](=O)[O-])cc1)NC(=O)CC1c2ccccc2-c2ccccc21 (stereo unspecified) : > 100 µM (inactive)

Value of measured GI50 for the entry CCCCC1=NNC(=O)C1 : > 100 µM (inactive)

Value of measured GI50 for the entry COc1ccc(-c2nc(-c3cnccn3)n(COCCO)n2)cc1 : > 100 µM (inactive)
